system.name: Penicillin-binding protein 2B (Streptococcus pneumoniae serotype 4 (strain ATCC BAA-334 / TIGR4))
Sequence (P0A3M5 whole entry): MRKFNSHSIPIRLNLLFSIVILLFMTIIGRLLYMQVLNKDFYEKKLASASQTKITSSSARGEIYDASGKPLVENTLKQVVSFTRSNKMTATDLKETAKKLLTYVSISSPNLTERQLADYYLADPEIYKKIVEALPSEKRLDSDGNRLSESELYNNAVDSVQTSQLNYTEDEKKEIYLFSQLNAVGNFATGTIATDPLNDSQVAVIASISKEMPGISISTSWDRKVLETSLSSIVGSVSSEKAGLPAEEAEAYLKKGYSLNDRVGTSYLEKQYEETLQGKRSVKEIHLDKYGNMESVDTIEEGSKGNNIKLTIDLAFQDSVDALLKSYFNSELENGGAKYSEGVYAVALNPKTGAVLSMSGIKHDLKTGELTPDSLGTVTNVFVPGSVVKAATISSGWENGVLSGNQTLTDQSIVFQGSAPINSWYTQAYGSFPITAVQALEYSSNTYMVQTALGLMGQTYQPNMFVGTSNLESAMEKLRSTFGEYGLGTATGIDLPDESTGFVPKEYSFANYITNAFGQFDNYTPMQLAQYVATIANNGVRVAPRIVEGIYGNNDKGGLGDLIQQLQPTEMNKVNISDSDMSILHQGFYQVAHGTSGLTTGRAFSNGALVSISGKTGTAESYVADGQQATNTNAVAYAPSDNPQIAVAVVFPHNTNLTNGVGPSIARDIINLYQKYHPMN
protocol.notes: Displacement of Biocillin FL from Streptococcus pneumoniae 3676 PBP2B
Listed compounds paired with reported IC50
reported.property: IC50 (nM)

C[C@@H](O)[C@H]1C(=O)N2C(C(=O)O)=C(SCCNC=N)C[C@H]12 [IMIPENEM ANHYDROUS]
1320
CC1(C)S[C@@H]2[C@H](NC(=O)Cc3ccccc3)C(=O)N2[C@H]1C(=O)O [PENICILLIN G]
789
CO/N=C(\C(=O)N[C@@H]1C(=O)N2C(C(=O)O)=C(COC(N)=O)CS[C@H]12)c1ccco1 [CEFUROXIME]
1110
C[C@@H](O)[C@H]1C(=O)N2C(C(=O)O)=C([C@H]3CCCO3)S[C@H]12 [FAROPENEM]
151
CC1(C)S[C@@H]2[C@H](NC(=O)[C@H](N)c3ccc(O)cc3)C(=O)N2[C@H]1C(=O)O [AMOXICILLIN]
394

----------
protocol.notes: Displacement of Biocillin FL from Streptococcus pneumoniae 2527 PBP1B
Mark class 1 only for IC50 values smaller than 0.02 µg/mL; exact matches and larger values are class 0.

CC1(C)S[C@@H]2[C@H](NC(=O)Cc3ccccc3)C(=O)N2[C@H]1C(=O)O
class 1
CO/N=C(\C(=O)N[C@@H]1C(=O)N2C(C(=O)O)=C(COC(N)=O)CS[C@H]12)c1ccco1
class 0
C[C@@H](O)[C@H]1C(=O)N2C(C(=O)O)=C([C@H]3CCCO3)S[C@H]12
class 1
C[C@@H](O)[C@H]1C(=O)N2C(C(=O)O)=C(SCCNC=N)C[C@H]12 [IMIPENEM ANHYDROUS]
class 0
CC1(C)S[C@@H]2[C@H](NC(=O)[C@H](N)c3ccc(O)cc3)C(=O)N2[C@H]1C(=O)O
class 0

----------
protocol.notes: Displacement of Biocillin FL from Streptococcus pneumoniae 2527 PBP3
Mark Met only for IC50 values smaller than 0.01 µg/mL; exact matches and larger values are Not met.

C[C@@H](O)[C@H]1C(=O)N2C(C(=O)O)=C([C@H]3CCCO3)S[C@H]12
Met
CO/N=C(\C(=O)N[C@@H]1C(=O)N2C(C(=O)O)=C(COC(N)=O)CS[C@H]12)c1ccco1
Not met
C[C@@H](O)[C@H]1C(=O)N2C(C(=O)O)=C(SCCNC=N)C[C@H]12 [IMIPENEM ANHYDROUS]
Not met
CC1(C)S[C@@H]2[C@H](NC(=O)[C@H](N)c3ccc(O)cc3)C(=O)N2[C@H]1C(=O)O
Not met
CC1(C)S[C@@H]2[C@H](NC(=O)Cc3ccccc3)C(=O)N2[C@H]1C(=O)O
Not met

----------
system.name: Penicillin-binding protein 2x (Streptococcus pneumoniae serotype 4 (strain ATCC BAA-334 / TIGR4))
Sequence (P14677 whole entry): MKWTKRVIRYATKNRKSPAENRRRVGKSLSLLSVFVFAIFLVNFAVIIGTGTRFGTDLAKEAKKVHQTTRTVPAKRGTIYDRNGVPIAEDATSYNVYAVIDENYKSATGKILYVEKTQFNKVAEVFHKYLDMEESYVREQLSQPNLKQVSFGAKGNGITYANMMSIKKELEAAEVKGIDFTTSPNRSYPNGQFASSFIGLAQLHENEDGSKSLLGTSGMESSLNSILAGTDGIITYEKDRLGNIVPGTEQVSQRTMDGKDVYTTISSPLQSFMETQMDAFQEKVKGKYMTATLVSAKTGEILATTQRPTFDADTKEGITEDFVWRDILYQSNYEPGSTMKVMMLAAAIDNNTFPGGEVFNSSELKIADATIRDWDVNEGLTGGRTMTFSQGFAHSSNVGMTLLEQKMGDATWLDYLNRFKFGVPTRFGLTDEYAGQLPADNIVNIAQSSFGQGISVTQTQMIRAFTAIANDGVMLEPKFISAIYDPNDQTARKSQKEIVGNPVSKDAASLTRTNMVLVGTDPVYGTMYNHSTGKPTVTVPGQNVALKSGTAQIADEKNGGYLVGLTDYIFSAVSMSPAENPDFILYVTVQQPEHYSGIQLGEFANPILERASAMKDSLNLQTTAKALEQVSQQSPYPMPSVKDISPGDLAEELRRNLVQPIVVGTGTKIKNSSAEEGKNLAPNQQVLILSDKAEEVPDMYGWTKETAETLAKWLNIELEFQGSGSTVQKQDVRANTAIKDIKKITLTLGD
protocol.notes: Displacement of Biocillin FL from Streptococcus pneumoniae 3676 PBP2X
Mark Yes only for IC50 values smaller than 100 nM; exact matches and larger values are No.

C[C@@H](O)[C@H]1C(=O)N2C(C(=O)O)=C(SCCNC=N)C[C@H]12 [IMIPENEM ANHYDROUS]
No
CC1(C)S[C@@H]2[C@H](NC(=O)Cc3ccccc3)C(=O)N2[C@H]1C(=O)O [PENICILLIN G]
Yes
CC1(C)S[C@@H]2[C@H](NC(=O)[C@H](N)c3ccc(O)cc3)C(=O)N2[C@H]1C(=O)O [AMOXICILLIN]
No
C[C@@H](O)[C@H]1C(=O)N2C(C(=O)O)=C([C@H]3CCCO3)S[C@H]12 [FAROPENEM]
Yes
CO/N=C(\C(=O)N[C@@H]1C(=O)N2C(C(=O)O)=C(COC(N)=O)CS[C@H]12)c1ccco1 [CEFUROXIME]
Yes
